Tested on: Clostridium diaphorase
Experiment: Fluorescent NADH detection assay, Clostridium diaphorase
Type: biochemical
Conditions: 30 min; 10 uM NADH
REPORTED PROPERTY: Fluorescence time course, Clostridium (FLUs)
Hi! Could you send only the number? It should be in FLUs, unit omitted.

Some compounds with known Fluorescence time course, Clostridium results, for comparison:
- COMPOUND: "CC1=C(C)C(=O)C(C(C)(C)CC(=O)N(C)CCN(C)C(=O)Oc2ccc3c(c2)Oc2cc(O)ccc2C32OC(=O)c3ccccc32)=C(C)C1=O (stereo not shown) [PBI 4440]"
  MEASUREMENT UNITS: "FLUs"
  REPORTED MEASUREMENT: 39807
- COMPOUND: "CC1=CC(=O)C(C)=C(C(C)(C)CC(=O)N(C)CCN(C)C(=O)Oc2ccc3c(c2)Oc2cc(OC(=O)N(C)CCN(C)C(=O)CC(C)(C)C4=C(C)C(=O)C=C(C)C4=O)ccc2C32OC(=O)c3ccccc32)C1=O [PBI 4413]"
  MEASUREMENT UNITS: "FLUs"
  REPORTED MEASUREMENT: 2896
- COMPOUND: "CC1=CC(=O)C(C)=C(C(C)(C)CC(=O)N(C)CCN(C)C(=O)Oc2ccc3c(c2)Oc2cc(O)ccc2C32OC(=O)c3ccccc32)C1=O (stereo not shown) [PBI 4412]"
  MEASUREMENT UNITS: "FLUs"
  REPORTED MEASUREMENT: 112465

Request: API: value(readout= Fluorescence time course, Clostridium, system= Clostridium diaphorase, query= CC1=C(C)C(=O)C(C(C)(C)CC(=O)N(C)CCN(C)C(=O)Oc2ccc3c(c2)Oc2cc(OC(=O)N(C)CCN(C)C(=O)CC(C)(C)C4=C(C)C(=O)C(C)=C(C)C4=O)ccc2C32OC(=O)c3ccccc32)=C(C)C1=O [PBI 4441] )
Result: 2334

---

Target: rat diaphorase (Rattus norvegicus)
Construct: purchased Sigma
Sequence (P05982 2-274 limits assumed): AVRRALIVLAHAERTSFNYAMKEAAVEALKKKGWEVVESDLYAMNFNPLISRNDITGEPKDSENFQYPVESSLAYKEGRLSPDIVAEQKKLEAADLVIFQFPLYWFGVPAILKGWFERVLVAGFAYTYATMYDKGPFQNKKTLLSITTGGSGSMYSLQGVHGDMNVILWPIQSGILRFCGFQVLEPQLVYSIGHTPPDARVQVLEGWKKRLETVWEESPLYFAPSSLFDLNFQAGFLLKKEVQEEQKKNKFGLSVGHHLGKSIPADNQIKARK
Format: biochemical
Conditions: 20 min; 10 uM NADH
REPORTED PROPERTY: Fluorescence time course, Rat (FLUs)
Hi! Could you send only the number? It should be in FLUs, unit omitted.

- COMPOUND: "CC1=CC(=O)C(C)=C(C(C)(C)CC(=O)N(C)CCN(C)C(=O)Oc2ccc3c(c2)Oc2cc(OC(=O)N(C)CCN(C)C(=O)CC(C)(C)C4=C(C)C(=O)C=C(C)C4=O)ccc2C32OC(=O)c3ccccc32)C1=O"
  REPORTED PROPERTY: "Fluorescence time course, Rat"
  REPORTED MEASUREMENT: 2151
- COMPOUND: "CC1=C(C)C(=O)C(C(C)(C)CC(=O)N(C)CCN(C)C(=O)Oc2ccc3c(c2)Oc2cc(OC(=O)N(C)CCN(C)C(=O)CC(C)(C)C4=C(C)C(=O)C(C)=C(C)C4=O)ccc2C32OC(=O)c3ccccc32)=C(C)C1=O"
  REPORTED PROPERTY: "Fluorescence time course, Rat"
  REPORTED MEASUREMENT: 3454
- COMPOUND: "CC1=CC(=O)C(C)=C(C(C)(C)CC(=O)N(C)CCN(C)C(=O)Oc2ccc3c(c2)Oc2cc(O)ccc2C32OC(=O)c3ccccc32)C1=O (stereo not shown)"
  REPORTED PROPERTY: "Fluorescence time course, Rat"
  REPORTED MEASUREMENT: 106834

Request: GET /values?readout=Fluorescence time course, Rat&item= CC1=C(C)C(=O)C(C(C)(C)CC(=O)N(C)CCN(C)C(=O)Oc2ccc3c(c2)Oc2cc(O)ccc2C32OC(=O)c3ccccc32)=C(C)C1=O (stereo not shown)
Result: 133999

---

Here, each record is paired with measured FLUs data.
Test system: Clostridium diaphorase
Assay: Fluorescent NADH detection assay, Clostridium diaphorase
Format: biochemical
Conditions: 0 μM NADH; 60 min; 1 u/ml Clostridium diaphorase
Hi! Could you send only the number? It should be in FLUs, unit omitted.

- MOLECULE: "CC1=C(C)C(=O)C(C(C)(C)CC(=O)N(C)CCN(C)C(=O)Oc2ccc3c(c2)Oc2cc(O)ccc2C32OC(=O)c3ccccc32)=C(C)C1=O (stereo not shown)"
  REPORTED PROPERTY: "FLUs"
  REPORTED MEASUREMENT: 3050
- MOLECULE: "CC1=C(C)C(=O)C(C(C)(C)CC(=O)N(C)CCN(C)C(=O)Oc2ccc3c(c2)Oc2cc(OC(=O)N(C)CCN(C)C(=O)CC(C)(C)C4=C(C)C(=O)C(C)=C(C)C4=O)ccc2C32OC(=O)c3ccccc32)=C(C)C1=O"
  REPORTED PROPERTY: "FLUs"
  REPORTED MEASUREMENT: 314
- MOLECULE: "CC1=CC(=O)C(C)=C(C(C)(C)CC(=O)N(C)CCN(C)C(=O)Oc2ccc3c(c2)Oc2cc(O)ccc2C32OC(=O)c3ccccc32)C1=O (stereo not shown)"
  REPORTED PROPERTY: "FLUs"
  REPORTED MEASUREMENT: 3940

Please turn your attention to the following entry.
Request: API: value(readout= FLUs, system= Clostridium diaphorase, query= `CC1=CC(=O)C(C)=C(C(C)(C)CC(=O)N(C)CCN(C)C(=O)Oc2ccc3c(c2)Oc2cc(OC(=O)N(C)CCN(C)C(=O)CC(C)(C)C4=C(C)C(=O)C=C(C)C4=O)ccc2C32OC(=O)c3ccccc32)C1=O` )
Result: 255

---

Molecular target: rat diaphorase (Rattus norvegicus, UniProt P05982)
Construct: purchased Sigma
Type: biochemical
Details: 0 μM NADH; 60 min; 1 u/ml rat diaphorase
REPORTED PROPERTY: FLUs (FLUs)
Hi! Could you send only the number? It should be in FLUs, unit omitted.

Some molecules with known FLUs results, for comparison:
- MOLECULE: "CC1=C(C)C(=O)C(C(C)(C)CC(=O)N(C)CCN(C)C(=O)Oc2ccc3c(c2)Oc2cc(OC(=O)N(C)CCN(C)C(=O)CC(C)(C)C4=C(C)C(=O)C(C)=C(C)C4=O)ccc2C32OC(=O)c3ccccc32)=C(C)C1=O [PBI 4441]"
  REPORTED MEASUREMENT: 120
- MOLECULE: "CC1=CC(=O)C(C)=C(C(C)(C)CC(=O)N(C)CCN(C)C(=O)Oc2ccc3c(c2)Oc2cc(OC(=O)N(C)CCN(C)C(=O)CC(C)(C)C4=C(C)C(=O)C=C(C)C4=O)ccc2C32OC(=O)c3ccccc32)C1=O [PBI 4413]"
  REPORTED MEASUREMENT: 39

Request: GET /values?readout=FLUs&item= CC1=C(C)C(=O)C(C(C)(C)CC(=O)N(C)CCN(C)C(=O)Oc2ccc3c(c2)Oc2cc(O)ccc2C32OC(=O)c3ccccc32)=C(C)C1=O (stereo not shown) [PBI 4440]
Result: 2922

Request: GET /values?readout=FLUs&item= CC1=CC(=O)C(C)=C(C(C)(C)CC(=O)N(C)CCN(C)C(=O)Oc2ccc3c(c2)Oc2cc(O)ccc2C32OC(=O)c3ccccc32)C1=O (stereo not shown) [PBI 4412]
Result: 3772

---

Test system: Clostridium diaphorase
Experiment: Fluorescent NADH detection assay, Clostridium diaphorase
Assay type: biochemical
Conditions: 70 min; 10 uM NADH
Method: Each fluorescent substrate (PBI-4412, 4413, 4440, and 4441) was incubated at 920 μM with 0 μM or 10 μM NADH (Sigma) or a titration of NADH (Table 8) and 1 u/ml rat diaphorase (Sigma) or 1 u/ml Clostridium diaphorase (Sigma) in a volume of 100 μl in 50 mM Tris pH 7.5. […] Fluorescence was monitored over the course of two hours at excitation and emission wavelengths of 485 and 527, respectively, using a fluorescence plate reader. […]
Here, each record is paired with measured Fluorescence time course, Clostridium data.

Request: GET /values?readout=Fluorescence time course, Clostridium&item= CC1=C(C)C(=O)C(C(C)(C)CC(=O)N(C)CCN(C)C(=O)Oc2ccc3c(c2)Oc2cc(OC(=O)N(C)CCN(C)C(=O)CC(C)(C)C4=C(C)C(=O)C(C)=C(C)C4=O)ccc2C32OC(=O)c3ccccc32)=C(C)C1=O [PBI 4441]
Result: 2584 FLUs

Request: GET /values?readout=Fluorescence time course, Clostridium&item= CC1=C(C)C(=O)C(C(C)(C)CC(=O)N(C)CCN(C)C(=O)Oc2ccc3c(c2)Oc2cc(O)ccc2C32OC(=O)c3ccccc32)=C(C)C1=O (stereo not shown) [PBI 4440]
Result: 43750 FLUs

Request: GET /values?readout=Fluorescence time course, Clostridium&item= CC1=CC(=O)C(C)=C(C(C)(C)CC(=O)N(C)CCN(C)C(=O)Oc2ccc3c(c2)Oc2cc(OC(=O)N(C)CCN(C)C(=O)CC(C)(C)C4=C(C)C(=O)C=C(C)C4=O)ccc2C32OC(=O)c3ccccc32)C1=O [PBI 4413]
Result: 3803 FLUs

Request: GET /values?readout=Fluorescence time course, Clostridium&item= CC1=CC(=O)C(C)=C(C(C)(C)CC(=O)N(C)CCN(C)C(=O)Oc2ccc3c(c2)Oc2cc(O)ccc2C32OC(=O)c3ccccc32)C1=O (stereo not shown) [PBI 4412]
Result: 126364 FLUs
